The entries below come with measured IC50 values attached.
test system: H2122; assay: Cell viability dose-response, H2122; type: cell-based, human; conditions: Homo sapiens, NCI-H2122, Table 9, competitor; read-out: IC50 to H2122 cells
Provide the reading as a plain figure in nM.

Previously resolved entries follow.
>>> number("COc1ccc(CCNC(=O)NC(=O)c2ccc(C(=O)N(C)C)cc2)cc1")
800
>>> number("COc1ccccc1C(=O)c1ccc(C(=O)NC(=O)NCCc2ccc(O)cc2)cc1")
800
>>> number("COc1ccc(CCNC(=O)NC(=O)c2ccc(Oc3ccccc3)cc2)cc1")
13.4
>>> number("COc1ccc2nc(NC(=O)c3ccc(C(=O)c4ccccc4)cc3)sc2c1")
9.23
>>> number("COc1ccc(CCNC(=O)C(=O)Nc2ccc(Cl)c(C#N)c2)cc1")
182
>>> number("COc1ccc(CCNC(=O)NC(=O)c2ccc(Cl)cc2)cc1")
90
>>> number("O=C(NCCc1ccc(O)cc1)NC(=O)c1ccc(C(=O)c2ccccc2)cc1")
37.7
>>> number("O=C(Nc1nc2ccccc2o1)c1ccc(C(=O)c2ccccc2)cc1")
800

Any idea what IC50 was measured for O=C(NCCc1ccc(O)cc1)NC(=O)c1ccc(Nc2ccccc2)cc1 ?
73.7

How about this compound: COc1ccc(C(=O)c2ccc(NC(=O)C(=O)NCCc3ccc(O)cc3)cc2)cc1
24.4

How about this compound: Cc1cccc(C(=O)c2ccc(C(=O)NC(=O)NCCc3ccc(O)cc3)cc2)c1
800

How about this compound: COc1ccc(CCNC(=O)C(=O)Nc2ccc(C)cc2F)cc1
500

How about this compound: COc1ccc(CCNC(=O)NC(=O)c2ccc(Nc3ccccc3)cc2)cc1
76.3

How about this compound: COc1ccc(CCNC(=O)NC(=O)c2ccc(COc3ccccc3)cc2)cc1
4.25

How about this compound: O=C(NCCc1ccc(O)cc1)NC(=O)c1ccc(COc2ccccc2)cc1
47.7

How about this compound: COc1ccc(CCNC(=O)NC(=O)c2ccc(C(O)c3ccccc3)cc2)cc1 (stereo not drawn)
45.6

How about this compound: COc1ccc(CCNC(=O)NC(=O)c2ccc(C(=O)c3ccc(OC)cc3)cc2)cc1
800

How about this compound: O=C(NCCc1ccc(O)cc1)NC(=O)c1ccc(Oc2ccccc2)cc1
19.7

---

test system: HCC95; test: Cell viability dose-response, HCC95; assay type: cell-based; conditions: Homo sapiens, Tables 3 and 4, read-out: IC50 (uM) vs indicated non-small cell lung cancer cell line HCC95
The entries below come with measured log10 of IC50 values attached.
Short version: log10 scale, IC50, µM.

Previously resolved entries follow.
>>> number("Cc1cc(C)nc(SCC(=O)Nc2nc3ccccc3s2)n1 [SW053831]")
1.93
>>> number("COc1ccc2nc(NC(=O)c3ccc(C(=O)c4ccccc4)cc3)sc2c1 [SW202857-1]")
1.03
>>> number("O=C(Nc1cccc(NC(=O)c2sc3ccccc3c2Cl)c1)c1cccc(Cl)c1 [SW023441]")
1.15
>>> number("COc1ccc2nc(NC(=O)c3ccc(N)cc3)sc2c1 [SW001286]")
0.30
>>> number("COc1ccc(C(=O)c2ccc(NC(=O)c3sc4ccccc4c3Cl)cc2)cc1 [SW202855-1]")
0.99

Any idea what log10 of IC50 was measured for O=C(c1ccccc1)c1ccc(NC(=O)c2sc3ccccc3c2Cl)cc1 [SW025780] ?
0.89

How about this compound: COc1ccc2nc(NC(=O)c3cccnc3)sc2c1 [SW202774-1]
-0.47

How about this compound: O=C(Nc1nc2c(s1)CCCC2)c1ccc(Cc2ccccc2)cc1 [SW011940]
0.77

How about this compound: CCOc1cc(OCC)cc(C(=O)Nc2nc3ccc(OC)cc3s2)c1 [SW202776-1]
0.91

How about this compound: O=C(Nc1nc2ccccc2s1)c1cccnc1 [SW006981]
2.04

---

The entries below come with measured IC50 values attached.
system: H1993; assay: Cell viability dose-response, H1993; assay type: cell-based; conditions: Homo sapiens, NCI-H1993; Tables 3 and 4; read-out: IC50 (uM) vs indicated non-small cell lung cancer cell line H1993
Provide the reading as a plain figure in µM.

>>> number("O=C(Nc1nnc(C2CCCCC2)s1)c1sc2ccccc2c1Cl")
16.9
>>> number("COc1ccc2nc(NC(=O)c3ccc(N)cc3)sc2c1")
27
>>> number("CCOC(=O)c1c(NC(=O)c2ccc([N+](=O)[O-])cc2)sc2c1CCCC2")
23.4
>>> number("COc1ccc2nc(NC(=O)c3ccc(OCc4ccccc4)cc3)sc2c1")
21.7

Any idea what IC50 was measured for CCOC(=O)c1c(NC(=O)c2ccc(F)cc2)sc2c1CCCC2 ?
47.1

How about this compound: CCN(CC)c1ccc(C(=O)Nc2nc3ccc4ccccc4c3s2)cc1
47.5

How about this compound: O=C(Nc1nc2c(s1)CCCC2)c1ccc(Cc2ccccc2)cc1
12.7

How about this compound: O=C(Nc1nc2ccccc2s1)c1cccnc1
21.5

How about this compound: COc1ccc(C(=O)c2ccc(NC(=O)c3sc4ccccc4c3Cl)cc2)cc1
17.8

How about this compound: COc1ccc2nc(NC(=O)c3c(F)ccc(OC)c3F)sc2c1
8.87

---

The entries below come with measured IC50 values attached.
tested on: H2009; assay: Cell viability dose-response, H2009; assay type: cell-based, human; conditions: Homo sapiens, NCI-H2009; Tables 3 and 4; read-out: IC50 (uM) vs indicated non-small cell lung cancer cell line H2009
Provide the reading as a plain figure in µM.

Previously resolved entries follow.
>>> number("O=C(Nc1nc2ccccc2[nH]1)c1ccc(C(=O)c2ccccc2)cc1")
1.8
>>> number("COc1cccc(C(=O)Nc2nc3ccc(OC)cc3s2)c1")
21.2
>>> number("Cn1c(NC(=O)c2ccc(C(=O)c3ccccc3)cc2)nc2ccccc21")
3.06
>>> number("COc1ccc2nc(NC(=O)c3cccnc3)sc2c1")
36.6
>>> number("O=C(c1ccc(O)cc1)c1ccc(NC(=O)c2sc3ccccc3c2Cl)cc1")
4.76

Find the measured IC50: item O=C(O)c1sc2ccccc2c1Cl , target or system H2009.
179

How about this compound: O=C(Nc1nc2c(s1)CCCC2)c1ccccc1Oc1ccccc1
55

How about this compound: CCOc1cc(OCC)cc(C(=O)Nc2nc3ccc(OC)cc3s2)c1
15.3

How about this compound: O=C(Nc1nc2ccccc2s1)c1ccc(C(=O)c2ccccc2)cc1
2.42

How about this compound: COc1ccc(C(=O)c2ccc(NC(=O)c3sc4ccccc4c3Cl)cc2)cc1
13.9

---

System: HCC44
Assay: Cell viability dose-response, HCC44
Type: cell-based, human
Settings: Homo sapiens, HCC44, 12-point dose-response starting at 50 micromolar, 3-fold increments, in duplicate; read-out: toxicity data, HCC44
Method: FIG. 6A. […] Cell viability is plotted vs. compound concentration. Compound was added to cells plated at 15% confluence in 96-well plates in RPMI-1640 media supplemented with 5% Fetal Bovine Serum and 2 mM L-Glutamine. After 4 days of incubation, ATP levels were measured using Cell Titer Glo (Promega). […] Selectivity may be measured by the half maximal inhibitory concentration (IC50), which, as used herein, is a measure of the effectiveness of a compound in killing cells. […]
pIC50: −log10 of the molar value.
Observation type: pIC50

Previously resolved entries follow.
>>> result("CNC(=O)c1ccc(C(=O)NC(=O)NCCc2ccc(OC)cc2)cc1")
"≤ 4.31"
>>> result("COc1ccc(C(=O)Nc2ccc(C(=O)c3ccccc3)cc2)cc1")
"≤ 4.31"
>>> result("COc1ccc(CNC(=O)c2ccc(Cl)cc2)cc1")
"≤ 4.31"
>>> result("COc1ccc(CCNC(=O)C(=O)Nc2ccc(C)c(C)c2)cc1")
"≤ 4.30"
>>> result("COc1ccc(CCNC(=O)C(=O)Nc2ccc(Cl)cc2)cc1")
"≤ 4.30"

Any idea what pIC50 was measured for COc1ccc(CCNC(=O)NC(=O)c2ccc(C(=O)N3CCCCC3)cc2)cc1 ?
≤ 4.31

How about this molecule: COc1ccc(CCCCC(=O)Nc2ccc(C(=O)c3ccccc3)cc2)cc1
5.85

How about this molecule: COc1ccc(CCNC(=O)NC(=O)c2ccc(C(=O)NC3CC3)cc2)cc1
≤ 4.31

How about this molecule: COc1ccc(CCNC(=O)NC(=O)c2ccc(O)cc2)cc1
5.56

How about this molecule: COc1ccc(CCNC(=O)NC(=O)c2ccc(Nc3ccccc3)cc2)cc1
7.52

How about this molecule: O=C(NCCc1ccc(O)cc1)NC(=O)c1ccc(OCc2ccccc2)cc1
8.00

How about this molecule: COc1ccc(CCNC(=O)NC(=O)c2ccc(C(=O)N3CCOCC3)cc2)cc1
≤ 4.31

How about this molecule: COc1ccc(CCN(C)C(=O)N(C)C(=O)c2ccc(C(=O)c3ccccc3)cc2)cc1
5.10
